# System: Lichtheimia corymbifera 272
# assay.details: Antifungal evaluation, microdilution broth method
# Format: cell-based
# reported.conditions: Lichtheimia corymbifera, 272; LC, 48 h
# Protocol: Antifungal evaluation was also accomplished with microdilution broth method. On the contrary, there was used RPMI 1640 broth with glutamine as medium and conditions were humid and dark atmosphere, pH 7.0 (adjusted with 0.165 M morpholinepropanesulfonic acid, MOPS) and 35 °C. […]
Measured IC80 accompanies every entry in the list below.
// note: answer is a bare numeric in µM

Use the examples below as a reference point.
>>> quantitative_result("C[C@@H]1[C@H](O)[C@@H](C)/C=C/C=C/C=C/C=C/C=C/C=C/C=C/[C@H](O[C@@H]2O[C@H](C)[C@@H](O)[C@H](N)[C@@H]2O)C[C@@H]2O[C@](O)(C[C@@H](O)C[C@@H](O)[C@H](O)CC[C@@H](O)C[C@@H](O)CC(=O)O[C@H]1C)C[C@H](O)[C@H]2C(=O)O")
7.81
>>> quantitative_result("NC(=O)c1nccnc1NC1CCCCC1")
500
>>> quantitative_result("C[C@@H](c1ncncc1F)[C@](O)(Cn1cncn1)c1ccc(F)cc1F")
250

Switching to the query record.
Query: If you can, please state the reported IC80 value of "NC(=O)c1nccnc1NC1CCCCCC1" .
Result: 250
